Target: Amine oxidase [flavin-containing] B (Homo sapiens)
Sequence (P27338 whole entry): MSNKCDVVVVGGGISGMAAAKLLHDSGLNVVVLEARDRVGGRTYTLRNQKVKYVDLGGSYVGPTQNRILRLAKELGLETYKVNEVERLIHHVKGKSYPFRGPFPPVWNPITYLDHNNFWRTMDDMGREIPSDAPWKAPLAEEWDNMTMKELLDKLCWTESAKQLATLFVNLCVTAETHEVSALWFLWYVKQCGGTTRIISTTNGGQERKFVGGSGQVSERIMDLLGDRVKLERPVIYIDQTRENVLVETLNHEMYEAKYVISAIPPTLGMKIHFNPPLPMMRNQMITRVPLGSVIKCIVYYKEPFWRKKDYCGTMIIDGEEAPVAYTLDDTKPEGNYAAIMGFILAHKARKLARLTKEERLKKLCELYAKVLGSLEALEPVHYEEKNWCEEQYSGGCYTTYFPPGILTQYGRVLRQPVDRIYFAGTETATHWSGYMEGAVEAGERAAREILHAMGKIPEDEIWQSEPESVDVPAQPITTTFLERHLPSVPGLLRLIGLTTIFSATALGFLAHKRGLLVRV
Assay: biochemical
Description: Inhibition of recombinant human MAO-B expressed in baculovirus infected BTI cells using p-tyramine as substrate by fluorometric assay
pIC50: −log10 of the molar value.
Mark f for pIC50 values under 6, and t for everything at or above.

Record excerpt, results attached:
O=c1c2cc(Cl)ccc2oc2ccc(OCCCCCCN3CCCCC3)cc12: f
CC1CCCN(CCCCCOc2ccc3oc4ccccc4c(=O)c3c2)C1 (stereo unspecified): f
CC1CCCN(CCCCCOc2ccc3oc4cc(Cl)ccc4c(=O)c3c2)C1 (stereo unspecified): f

pIC50 >= 6 for `O=c1c2ccccc2oc2ccc(OCCCCCCN3CCCCCC3)cc12` ?
t

Please check the record `CC1CCN(CCCCCCOc2ccc3oc4cc(Cl)ccc4c(=O)c3c2)CC1` and state if its pIC50 is at or above 6.
f

# check: pIC50 of CC1CCCN(CCCCCCOc2ccc3oc4cc(Cl)ccc4c(=O)c3c2)C1 (stereo unspecified) is greater than or equal to 6
f
